- assayed.target: human CLDN18.2 (human)
- experimental.protocol: cell-based or functional assay
ADCC EC50, Jurkat-CD16a v158-NFAT-luciferase effector cells, KATOIII target cells for assorted binders
observed.property: ADCC EC50, Jurkat-CD16a v158-NFAT-luciferase effector cells, KATOIII target cells (nM)

binder	units	result.value
humanized antibody hz28G3-2.1 (antibody, human IgG1, kappa, V domains shown) VH: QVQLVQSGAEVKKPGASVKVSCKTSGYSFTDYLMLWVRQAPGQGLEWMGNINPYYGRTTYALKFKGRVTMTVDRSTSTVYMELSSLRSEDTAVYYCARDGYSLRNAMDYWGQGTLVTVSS VL: DIVMTQSPYSLAVSLGERATINCKSSQSLFNSGNQKNYLAWYQQKPGQPPKLLIYGASTRESGVPDRFTGSGSGTDFTLTISSLQAEDVAVYYCQNAHSYPYTFGQGTKVEIKR	nM	0.184
chimeric antibody xi28G3 (antibody, human IgG1, kappa, V domains shown, Mouse variable regions on human IgG1/kappa; defucosylated, expressed in FUT8-knockout CHO-S cells; also called chimeric 28G3) VH: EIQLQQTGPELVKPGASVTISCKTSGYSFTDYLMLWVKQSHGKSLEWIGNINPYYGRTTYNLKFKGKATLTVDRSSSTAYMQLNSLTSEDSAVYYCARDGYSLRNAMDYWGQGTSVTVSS VL: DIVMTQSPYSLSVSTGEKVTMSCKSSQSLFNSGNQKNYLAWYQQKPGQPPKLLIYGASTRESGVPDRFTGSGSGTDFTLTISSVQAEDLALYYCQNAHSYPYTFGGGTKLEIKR	nM	0.043
humanized antibody hz28G3-2.3 (antibody, human IgG1, kappa, V domains shown) VH: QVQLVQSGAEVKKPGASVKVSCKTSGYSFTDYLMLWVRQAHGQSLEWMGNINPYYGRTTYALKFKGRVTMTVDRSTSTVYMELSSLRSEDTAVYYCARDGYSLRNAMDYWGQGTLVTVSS VL: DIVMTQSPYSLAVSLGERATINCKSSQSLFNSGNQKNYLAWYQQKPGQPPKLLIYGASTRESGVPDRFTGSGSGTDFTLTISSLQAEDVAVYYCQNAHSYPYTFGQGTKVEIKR	nM	0.209
